Cited source: paper PMC9482650

Molecular target: T1, TX1BP3, O14907
T1 sequence (O14907 10-122, limits assumed, looked up): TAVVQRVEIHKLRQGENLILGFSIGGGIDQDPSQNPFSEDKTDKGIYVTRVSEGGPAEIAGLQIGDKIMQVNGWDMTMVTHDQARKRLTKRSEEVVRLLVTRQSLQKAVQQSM
Assay: holdup assay
Parameters: key: below the threshold = too weak to quantify, mostly under pKd 3.1 to 4
Details: plain residues with an end cap or a label only (N-terminal biotin on a linker: ado-ado)
READOUT KIND: pKd
Lab note: jot down the number only; don't add units.

INSERT INTO results (binder, readout_kind, value_observed) VALUES
  ('SRPHTNETSL [MCC, P23508]', 'pKd', 4.12);

query: Provide only the value of recorded pKd for EPAKETTTNV [SLC2A3, P11169]
result: 4.12

query: Provide only the value of recorded pKd for EAVTVESTSL [SLC22A11, Q9NSA0]
result: 4.25

query: Provide only the value of recorded pKd for LVEEEEPMNL [HDAC7, Q8WUI4]
result: 4.01

query: Provide only the value of recorded pKd for PLPPEEESWV [GAS2L2, Q8NHY3]
result: 4.62

query: Provide only the value of recorded pKd for AHGSTRDQSI [KCNB1, Q14721]
result: 4.1

query: Provide only the value of recorded pKd for IKLETKKTKL [SLC15A2, Q16348]
result: 4.02

query: Provide only the value of recorded pKd for NNMAFETTHF [SLC5A12, Q1EHB4]
result: 3.93
